# testDetails: in vivo
# conditionContext: rat, oral, rats 5 week age, observed for 3 days
Form field: LD50 at 72 h (one value per entry).

smiles	LD50 at 72 h
CCCOC(=O)C1=C(C)NC(C)=C(C(=O)OCCC)C1C1=COCCO1	≥ 2000 mg/kg
CCOC(=O)C1=C(C)NC(C)=C(C(=O)OCC)C1C1=COCCO1	~2000 mg/kg

The reported numbers originate from patent US4495356A.
